All values here come from patent US20260242735A1.

Biological target: human CD33 Q24V (human, UniProt P20138 18-364)
Sequence (P20138 18-364 Q24V limits assumed): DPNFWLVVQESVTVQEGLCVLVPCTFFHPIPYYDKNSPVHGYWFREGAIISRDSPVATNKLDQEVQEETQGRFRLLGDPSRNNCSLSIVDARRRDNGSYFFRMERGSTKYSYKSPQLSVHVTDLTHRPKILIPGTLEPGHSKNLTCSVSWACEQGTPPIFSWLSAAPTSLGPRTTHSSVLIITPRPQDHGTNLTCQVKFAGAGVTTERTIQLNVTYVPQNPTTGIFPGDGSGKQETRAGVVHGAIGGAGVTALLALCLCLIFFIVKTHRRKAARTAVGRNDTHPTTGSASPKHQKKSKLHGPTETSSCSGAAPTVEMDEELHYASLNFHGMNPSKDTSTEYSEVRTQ
Test: flow cytometry, mutant on cells, IgG
outcome_measure: Mean % WT Binding (% WT binding)
One number for each entry, in % WT binding.

Check out these entries, answers already filled in.
binder | outcome_measure | unit_of_measure | obs_value
Refmab #4 (antibody, human IgG1, V domains shown, Tested in IgG format; human IgG1 Fc silent (PG-LALA)) VH: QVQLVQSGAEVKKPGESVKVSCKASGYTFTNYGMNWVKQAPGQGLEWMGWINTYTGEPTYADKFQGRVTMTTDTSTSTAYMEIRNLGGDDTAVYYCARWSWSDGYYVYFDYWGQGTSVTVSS VL: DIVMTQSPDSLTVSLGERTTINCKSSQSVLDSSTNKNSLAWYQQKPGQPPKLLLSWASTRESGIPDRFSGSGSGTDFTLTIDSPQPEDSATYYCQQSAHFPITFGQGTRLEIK | Mean % WT Binding | % WT binding | 81.5
Refmab #1 (antibody, human IgG1, V domains shown, Tested in IgG format; human IgG1 (Absolute Antibody hP67.6, Cat. No. Ab00283-10.0); also called hP67.6) VH: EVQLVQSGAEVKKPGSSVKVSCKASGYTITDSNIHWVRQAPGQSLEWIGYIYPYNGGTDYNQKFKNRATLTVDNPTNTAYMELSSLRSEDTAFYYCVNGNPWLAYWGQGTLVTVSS VL: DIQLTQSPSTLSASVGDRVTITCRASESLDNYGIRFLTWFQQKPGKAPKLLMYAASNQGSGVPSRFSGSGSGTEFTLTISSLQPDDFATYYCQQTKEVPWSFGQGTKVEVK | Mean % WT Binding | % WT binding | 92.6
Refmab #3 (antibody, human IgG1, V domains shown, Tested in IgG format; human IgG1 Fc silent (PG-LALA)) VH: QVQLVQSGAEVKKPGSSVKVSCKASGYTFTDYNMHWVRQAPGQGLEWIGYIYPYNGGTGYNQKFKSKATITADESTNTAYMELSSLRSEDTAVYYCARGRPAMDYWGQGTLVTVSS VL: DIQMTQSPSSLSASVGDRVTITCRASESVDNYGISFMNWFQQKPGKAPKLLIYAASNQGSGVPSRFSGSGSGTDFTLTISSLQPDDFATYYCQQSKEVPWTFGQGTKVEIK | Mean % WT Binding | % WT binding | 24.5

Q: So what does the record say about Mean % WT Binding for Refmab #2 (antibody, human IgG1, V domains shown, Tested in IgG format; human IgG1 Fc silent (PG-LALA)) VH: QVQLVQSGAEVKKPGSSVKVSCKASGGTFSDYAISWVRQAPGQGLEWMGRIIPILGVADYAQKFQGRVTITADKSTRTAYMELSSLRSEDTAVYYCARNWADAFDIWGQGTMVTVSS VL: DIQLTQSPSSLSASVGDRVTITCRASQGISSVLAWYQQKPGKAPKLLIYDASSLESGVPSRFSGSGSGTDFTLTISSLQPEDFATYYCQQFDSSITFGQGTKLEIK ?
A: 99.3
